Provenance of the data: ChEMBL document CHEMBL1122254

Test system: Rattus norvegicus
Experiment Notes: Hypoglycemic activity by lowering blood glucose in normal rats by 20% after oral administration.
Assay type: functional
Ranges used to classify ED20: A: < 0.02 mmol/kg; B: ≥ 0.02 mmol/kg and < 0.06 mmol/kg; C: ≥ 0.06 mmol/kg

Previously resolved entries follow.
C=CCCC(=O)NCCc1ccc(S(=O)(=O)N2CCN(C3CCCCC3)C2=N)cc1: A
CCCCN(C)C(=O)NCCc1ccc(S(=O)(=O)N2CCN(C3CCCCC3)C2=N)cc1: B
COc1ccc(Cl)cc1C(=O)NCCc1ccc(S(=O)(=O)NC(=O)NC2CCCCC2)cc1 [GLYBURIDE]: A
COCCC(=O)NCCc1ccc(S(=O)(=O)N2CCN(C3CCCCC3)C2=N)cc1: B
N=C1N(C2CCCCC2)CCN1S(=O)(=O)c1ccc(CCNC(=O)CCC2CCC2)cc1: B
N=C1N(C2CCCCC2)CCN1S(=O)(=O)c1ccc(CCNC(=O)Nc2ccccc2)cc1: C
N=C1N(C2CCCCC2)CCN1S(=O)(=O)c1ccc(CCNC(=O)c2ccccc2Cl)cc1: B
N=C1N(C2CCCCC2)CCN1S(=O)(=O)c1ccc(CCNC(=O)c2ccc(Cl)c(Cl)c2)cc1: C
C=C(C(=O)NCCc1ccc(S(=O)(=O)N2CCN(C3CCCCC3)C2=N)cc1)c1ccccc1: A
CC(C)/C=C/C(=O)NCCc1ccc(S(=O)(=O)N2CCN(C3CCCCC3)C2=N)cc1: A

Query string: Which class is correct for the following compound? COc1ccc(C(=O)NCCc2ccc(S(=O)(=O)N3CCN(C4CCCCC4)C3=N)cc2)cc1
Result string: C

Query string: Hello team, could you let me know which band the following compound falls into: C[S+]([O-])CCC(=O)NCCc1ccc(S(=O)(=O)N2CCN(C3CCCCC3)C2=N)cc1 (centres undefined)
Result string: B

Query string: Bin this entry: C/C=C/C(=O)NCCc1ccc(S(=O)(=O)N2CCN(C3CCCCC3)C2=N)cc1
Result string: A

Query string: Hey, which category is C=C(C)C(=O)NCCc1ccc(S(=O)(=O)N2CCN(C3CCCCC3)C2=N)cc1 in, do you know?
Result string: B

Query string: Entry CCC(CC)C(=O)NCCc1ccc(S(=O)(=O)N2CCN(C3CCCCC3)C2=N)cc1 belongs to which category?
Result string: C

Query string: For the record N=C1N(C2CCCCC2)CCN1S(=O)(=O)c1ccc(CCNC(=O)C(N)c2ccccc2)cc1 (centres undefined) , report the class its ED20 corresponds to.
Result string: B

Query string: Category lookup for the compound Cc1ccccc1C(=O)NCCc1ccc(S(=O)(=O)N2CCN(C3CCCCC3)C2=N)cc1
Result string: B

Query string: Hi there! Could you help me figure out the category for CSCC(=O)NCCc1ccc(S(=O)(=O)N2CCN(C3CCCCC3)C2=N)cc1 please?
Result string: C

Query string: Where would C[S+]([O-])CC(=O)NCCc1ccc(S(=O)(=O)N2CCN(C3CCCCC3)C2=N)cc1 (centres undefined) land among the classes by reported ED20?
Result string: C

* * *

Test system: Rattus norvegicus
Experiment Notes: Compound evaluated for hypoglycemic activity by lowering blood glucose in streptozotocin-diabetic rats by 20% after oral administration
Type: functional
Experimental Endpoint: ED20 (mmol/kg)
Provide the reading as a plain figure in mmol/kg.

Below, 3 molecules whose answers are already recorded.
N=C(N)NC(=N)NCCc1ccccc1: 0.16
COc1cccc(C(=O)NCCc2ccc(S(=O)(=O)N3CCN(C4CCCCC4)C3=N)cc2)c1: 0.31
CCCC(=O)NCCc1ccc(S(=O)(=O)N2CCN(C3CCCCC3)C2=N)cc1: 0.52

Let us examine a further case.
Query string: Output measured ED20 for this item: CCS(=O)(=O)CC(=O)NCCc1ccc(S(=O)(=O)N2CCN(C3CCCCC3)C2=N)cc1
Result string: 0.83
